Target: Proteasome Macropain subunit MB1 (Homo sapiens) (UniProt P28074)
Sequence (whole entry): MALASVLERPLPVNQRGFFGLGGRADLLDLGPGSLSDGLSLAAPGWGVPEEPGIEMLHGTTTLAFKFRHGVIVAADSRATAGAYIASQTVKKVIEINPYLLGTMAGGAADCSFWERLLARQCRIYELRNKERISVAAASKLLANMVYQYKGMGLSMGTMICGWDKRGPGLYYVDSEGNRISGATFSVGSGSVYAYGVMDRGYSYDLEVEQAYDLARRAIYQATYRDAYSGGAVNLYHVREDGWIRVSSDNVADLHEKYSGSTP
Experiment: Inhibition of 20s constitutive proteasome beta5 chymotrypsin-like activity in human erythrocytes using Suc-Leu-Leu-Val-Tyr-AMC as substrate at 50 uM after 10 mins by fluorescence assay relative to control
Type: cell-based
measurement kind: inhibition

> print(dat)
                                 smiles.str  measurement.kind  observed
1  O=C1/C(=C/c2ccc(Oc3ccccc3)cc2)NC(=S)N1c1cccc2ccccc12        inhibition       20%

Then there is this compound:
Exam item: Name the reported inhibition value associated with the compound O=C1/C(=C/c2cccc(Oc3ccccc3)c2)NC(=S)N1c1ccccc1
Marked response: 39%

The reported measurements were obtained from ChEMBL document CHEMBL4184119.
